Kindly supply the reported Maximal downregulation (% Siglec-7 remaining) values for the records listed here.
# experimentalTarget: human Siglec-7 on primary human monocyte-derived dendritic cells (human, UniProt Q9Y286 19-467)
# Sequence (Q9Y286 19-467): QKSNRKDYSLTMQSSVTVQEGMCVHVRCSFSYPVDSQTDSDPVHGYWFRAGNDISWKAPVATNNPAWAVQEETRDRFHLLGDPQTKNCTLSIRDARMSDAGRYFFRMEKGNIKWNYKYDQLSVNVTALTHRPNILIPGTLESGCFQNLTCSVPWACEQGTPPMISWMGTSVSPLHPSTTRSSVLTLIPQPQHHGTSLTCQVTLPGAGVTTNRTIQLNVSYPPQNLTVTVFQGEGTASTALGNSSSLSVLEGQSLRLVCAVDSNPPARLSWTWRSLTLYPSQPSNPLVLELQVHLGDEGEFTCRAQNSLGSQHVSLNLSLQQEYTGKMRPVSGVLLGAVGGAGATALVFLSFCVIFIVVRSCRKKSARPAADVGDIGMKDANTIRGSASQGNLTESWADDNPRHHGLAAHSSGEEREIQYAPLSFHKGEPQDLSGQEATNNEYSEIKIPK
# protocolDetails: cell-based or functional assay
Numbers only, in %.

Solved cases below.
Qu. What value of measured Maximal downregulation (% Siglec-7 remaining) is listed for S7AB-H8.12 (antibody, V domains shown) VH: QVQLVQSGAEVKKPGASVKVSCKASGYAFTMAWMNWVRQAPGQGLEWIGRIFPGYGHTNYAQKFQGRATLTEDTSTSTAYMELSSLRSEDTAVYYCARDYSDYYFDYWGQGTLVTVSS VL: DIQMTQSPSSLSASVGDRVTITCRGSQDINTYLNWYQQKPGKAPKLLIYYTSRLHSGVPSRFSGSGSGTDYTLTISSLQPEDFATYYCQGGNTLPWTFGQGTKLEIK ?
Ans. 61.3

Qu. Ok, now S7AB-H8.35 (antibody, V domains shown) VH: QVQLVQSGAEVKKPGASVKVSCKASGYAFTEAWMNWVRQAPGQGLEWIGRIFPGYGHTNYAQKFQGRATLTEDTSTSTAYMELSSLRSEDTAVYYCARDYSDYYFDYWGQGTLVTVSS VL: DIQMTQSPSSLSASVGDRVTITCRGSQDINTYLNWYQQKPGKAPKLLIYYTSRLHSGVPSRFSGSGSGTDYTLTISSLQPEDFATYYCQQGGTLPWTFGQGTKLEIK
Ans. 9.3

// moving on: another record for Maximal downregulation (% Siglec-7 remaining)
Qu. Reported Maximal downregulation (% Siglec-7 remaining) for S7AB-H8.39 (antibody, V domains shown) VH: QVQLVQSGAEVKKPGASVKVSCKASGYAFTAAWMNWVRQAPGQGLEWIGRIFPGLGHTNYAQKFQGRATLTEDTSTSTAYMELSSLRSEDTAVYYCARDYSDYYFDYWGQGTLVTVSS VL: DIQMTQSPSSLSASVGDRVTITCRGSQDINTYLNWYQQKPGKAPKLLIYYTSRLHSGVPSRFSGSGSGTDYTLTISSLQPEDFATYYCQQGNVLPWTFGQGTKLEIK : what is it?
Ans. 4.3
